Molecular target: T1, ABC transporter MOAT-C peptide on HLA-A*02:01 (human)
T1 peptide: RISDIGLADL
Experiment: cytokine release
Assay metric: binding result

Sample records with binding result:
SIG35α / TRBV27 Cl.1593 (TCR) alpha TRAV12-2 J35 CDR3: CAVSIGFGNVL beta TRBV27 TRBJ1-5 CDR3: CASGNNQPQHF    no recognition
SIG35α / TRBV27 Cl.1606 (TCR) alpha TRAV12-2 J35 CDR3: CAVSIGFGNVL beta TRBV27 TRBJ2-7 CDR3: CASSLLGSYEQYF    no recognition
SIG35α / TRBV27 Cl.794 (TCR) alpha TRAV12-2 J35 CDR3: CAVSIGFGNVL beta TRBV27 TRBJ1-2 CDR3: CASSLLGDYGYTF    no recognition
SIG35α / TRBV27 Cl.1086 (TCR) alpha TRAV12-2 J35 CDR3: CAVSIGFGNVL beta TRBV27 TRBJ1-2 CDR3: CASSLHGPGGYTF    no recognition
SIG35α / TRBV27 Cl.413 (TCR) alpha TRAV12-2 J35 CDR3: CAVSIGFGNVL beta TRBV27 TRBJ1-4 CDR3: CASSVFGGDMGEKLFF    no recognition

For reference, reported binding result for SIG35α / TRBV27 Cl.1599 (TCR) alpha TRAV12-2 J35 CDR3: CAVSIGFGNVL beta TRBV27 TRBJ1-1 CDR3: CASSFLGAMAEAFF stands at no recognition

For reference, reported binding result for SIG35α / TRBV27 Cl.788 (TCR) alpha TRAV12-2 J35 CDR3: CAVSIGFGNVL beta TRBV27 TRBJ2-7 CDR3: CASGPSYEQYF stands at no recognition

For reference, reported binding result for SIG35α / TRBV27 Cl.758 (TCR) alpha TRAV12-2 J35 CDR3: CAVSIGFGNVL beta TRBV27 TRBJ2-2 CDR3: CASSPRLAGDGELFF stands at no recognition

For reference, reported binding result for SIG35α / TRBV27 Cl.523 (TCR) alpha TRAV12-2 J35 CDR3: CAVSIGFGNVL beta TRBV27 TRBJ2-7 CDR3: CASGSYEQYF stands at no recognition

For reference, reported binding result for SIG35α / TRBV27 Cl.1574 (TCR) alpha TRAV12-2 J35 CDR3: CAVSIGFGNVL beta TRBV27 TRBJ1-1 CDR3: CASSPWERINTEAFF stands at no recognition
